- EXPERIMENT_SUMMARY: M. tuberculosis H37Rv growth inhibitors, H37Rv strain (AID 1626);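 note: bacteria incubated seven days before Alamar blue readout; 0% = bacteria only wells and 100% = bacteria with antibiotic wells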
- CONDITIONS: active compounds read high, concentration not given here
The whole screen tested about 220,000 compounds, of which about 2,000 (0.91%) were called active. Another 2% or so got no clear call; they are omitted. Only a sample is shown. Results with a measured potency or affinity are listed apart.
Quick reference: inhibition of the listed items.

COMPOUND | UNITS_LABEL | inhibition
CCNc1nc(NC(C)(C)C)nc(N(C#N)CC)n1 | % | 2.33
CC1(c2ccc([N+](=O)[O-])cc2)CC(C)(C)N(C(=O)c2ccccc2)c2ccccc21 (stereo not given) | % | 6.73
CC1CCN(C(=O)c2ccc(N3CC4CC(C3)c3cccc(=O)n3C4)c([N+](=O)[O-])c2)CC1 (stereo not given) | % | -2.48
COc1cc(NC(=O)CCCc2c[nH]c3ccccc23)cc(OC)c1 | % | 13
CCOC(=O)c1ccc(N2C(=O)c3n[nH]c(C)c3C2c2ccccc2)cc1 (stereo not given) | % | -3.14
